Field: solubility at 24 h. Provide a value for each of the compounds that follow.
# assayDetails: Compound solubility determination (gross and equilibrium solubility; FaSSIF, FeSSIF, pH 7.4 PBS, pH 1.0 0.1N HCl, pH 4.5 sodium citrate)
# Type: physicochemical
# testConditions: FaSSIF (fasted state simulated intestinal fluid), fassif, thermodynamic from solid; read-out: Solubility in FaSSIF

// query solubility at 24 h value for entry Cc1[nH]c(C)c(-c2ccc(-c3ccc(Cl)cc3)nc2)c(=O)c1Br
1 to 5 µg/mL

// query solubility at 24 h value for entry Cc1[nH]c(C)c(-c2ccc(CCc3cccc(C(F)(F)F)c3)nc2)c(=O)c1Cl
10 to 50 µg/mL

// query solubility at 24 h value for entry Cc1[nH]c(C)c(-c2ccc(-c3ccc(C(F)(F)F)cc3C(F)(F)F)nc2)c(=O)c1Br
< 1 µg/mL

// query solubility at 24 h value for entry Cc1[nH]c(C)c(-c2ccc(-c3cc(C(F)(F)F)ccc3Cl)nc2)c(=O)c1Cl
5 to 10 µg/mL
